- measurementTarget: PTPRF (UniProt P10586)
- Sequence (P10586 30-1907): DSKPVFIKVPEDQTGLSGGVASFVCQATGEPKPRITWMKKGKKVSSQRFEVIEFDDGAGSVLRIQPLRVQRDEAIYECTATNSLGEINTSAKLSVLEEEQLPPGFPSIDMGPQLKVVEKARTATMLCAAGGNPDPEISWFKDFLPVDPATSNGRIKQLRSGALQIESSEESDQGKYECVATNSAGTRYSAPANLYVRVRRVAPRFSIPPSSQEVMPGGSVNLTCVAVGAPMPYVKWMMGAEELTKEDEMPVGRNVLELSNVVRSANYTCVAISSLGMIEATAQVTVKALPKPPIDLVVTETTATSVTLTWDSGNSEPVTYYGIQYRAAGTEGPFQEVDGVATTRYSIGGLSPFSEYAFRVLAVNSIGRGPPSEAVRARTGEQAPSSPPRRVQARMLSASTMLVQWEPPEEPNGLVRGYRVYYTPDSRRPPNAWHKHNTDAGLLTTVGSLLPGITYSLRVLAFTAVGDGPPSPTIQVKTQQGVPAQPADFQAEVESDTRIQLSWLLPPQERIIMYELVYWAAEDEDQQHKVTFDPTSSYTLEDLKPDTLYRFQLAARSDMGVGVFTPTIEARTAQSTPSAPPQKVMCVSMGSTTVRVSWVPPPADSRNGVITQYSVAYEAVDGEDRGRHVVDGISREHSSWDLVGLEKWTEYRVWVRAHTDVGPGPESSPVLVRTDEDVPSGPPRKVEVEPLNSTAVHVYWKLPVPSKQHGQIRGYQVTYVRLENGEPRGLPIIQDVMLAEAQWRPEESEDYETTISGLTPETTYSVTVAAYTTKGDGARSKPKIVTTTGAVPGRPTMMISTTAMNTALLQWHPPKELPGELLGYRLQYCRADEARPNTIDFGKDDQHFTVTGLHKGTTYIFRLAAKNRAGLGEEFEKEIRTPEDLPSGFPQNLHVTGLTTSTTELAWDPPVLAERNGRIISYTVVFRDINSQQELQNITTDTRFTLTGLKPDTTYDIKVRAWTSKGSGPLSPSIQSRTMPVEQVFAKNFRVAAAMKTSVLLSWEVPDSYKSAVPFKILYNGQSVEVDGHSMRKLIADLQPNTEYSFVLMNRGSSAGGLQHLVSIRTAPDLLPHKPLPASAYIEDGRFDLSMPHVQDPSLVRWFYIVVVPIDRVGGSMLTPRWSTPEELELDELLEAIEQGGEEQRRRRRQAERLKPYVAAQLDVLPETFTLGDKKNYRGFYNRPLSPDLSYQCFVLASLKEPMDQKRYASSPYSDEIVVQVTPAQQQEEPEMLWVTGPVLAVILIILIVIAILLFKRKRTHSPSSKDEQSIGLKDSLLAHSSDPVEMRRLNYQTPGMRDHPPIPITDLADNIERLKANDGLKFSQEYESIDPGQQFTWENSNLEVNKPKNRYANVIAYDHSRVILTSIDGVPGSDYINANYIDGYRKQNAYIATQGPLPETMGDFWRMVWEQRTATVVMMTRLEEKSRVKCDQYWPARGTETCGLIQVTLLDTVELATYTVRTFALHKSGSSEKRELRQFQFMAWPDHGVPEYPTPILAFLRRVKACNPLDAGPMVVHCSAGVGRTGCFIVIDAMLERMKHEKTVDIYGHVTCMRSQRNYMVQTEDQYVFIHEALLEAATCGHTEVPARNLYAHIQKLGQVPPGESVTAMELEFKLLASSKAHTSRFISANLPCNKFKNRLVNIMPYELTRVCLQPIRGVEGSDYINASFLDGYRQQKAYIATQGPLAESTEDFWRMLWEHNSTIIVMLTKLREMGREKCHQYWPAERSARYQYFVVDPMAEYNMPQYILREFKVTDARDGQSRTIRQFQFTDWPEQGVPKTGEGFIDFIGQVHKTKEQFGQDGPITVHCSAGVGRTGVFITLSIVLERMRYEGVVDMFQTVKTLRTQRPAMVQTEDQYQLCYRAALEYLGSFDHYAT
- experimentNotes: flow cytometry
measuredAttribute: Kd (µM)
Write the answer as a number in µM, unit excluded.

Query (sequence): TGGAGGATATAGGTTGGCTTAGGTGGCTTTGCGTTGGGTGTGGTGCATATCCTCCA [ZAJ4a] ; field requested: Kd 0.0233
